Reference for the values: ChEMBL document CHEMBL1201862

# Tested on: MOLT-4
# PROTOCOL_SUMMARY: NCI tumour cell line growth inhibition, 48 h
Active and inactive are the calls of the source. No stated cut-off is given here; in the data, active = GI50 up to about 1.1 µM and inactive = higher. Residues, ends and D or L forms follow the SMILES beside them. *: point of attachment. Fmoc = O=C(OCC1c2ccccc2-c2ccccc21)*; Boc = CC(C)(C)OC(=O)*
Below, each entry is listed alongside its reported GI50.

Reference set (3 entries):
>>> result("O=C(c1ccccc1)c1c(CC(O)c2ccncc2)n(C(=O)c2ccccc2)c2ccccc12 (configuration not stated)")
"18.2 µM (inactive)"
>>> result("O=C(CCC(=O)Nc1ccc(Cl)c(Cl)c1)CC(=O)c1ccc2ccccc2c1")
"48.3 µM (inactive)"
>>> result("C=C(C)C(=O)O[C@H]1C/C(CO)=C/CCC(=C)C(OC(C)=O)[C@H]2OC(=O)C(=C)[C@H]12 (some centres not stated)")
"1.96 µM (inactive)"

**Query** // lookup GI50 for O=C1/C(=C\c2cccc(Oc3ccccc3)c2)S(=O)(=O)C(c2ccccc2)N1c1cc(Cl)ccc1Cl (configuration not stated)
**Result** 3.84 µM (inactive)

**Query** // lookup GI50 for `[O-][n+]1c2cc3c(cc2[n+]([O-])c2c(O)cccc21)CN(CCN1CCOCC1)C3`
**Result** 4.43 µM (inactive)

**Query** // lookup GI50 for `C[C@@]12C(=O)OC(=O)[C@]1(C)[C@H]1CC[C@@H]2O1`
**Result** 9.79 µM (inactive)

**Query** // lookup GI50 for CC(C)(C)OC(=O)NCCCCC(NC(=O)C(Cc1c[nH]c2ccccc12)NC(=O)OCC1c2ccccc2-c2ccccc21)C(=O)N1CCCC1C(=O)NCC(N)=O (configuration not stated) (Fmoc-WK(Boc)PG-NH2; configuration not given here)
**Result** > 100 µM (inactive)

**Query** // lookup GI50 for `O=C1c2c(Br)sc(Br)c2[C@H]2NC(=S)O[C@@H]12`
**Result** 1.32 µM (inactive)

**Query** // lookup GI50 for `C=C1CC[C@@H]2[C@](C)(COC(=O)CCC(=O)O)CCC[C@@]2(C)[C@@H]1CCC1=CC(=O)OC1`
**Result** > 100 µM (inactive)

**Query** // lookup GI50 for `Cc1ccc(NC(=O)c2ccccc2C(=O)O)cc1C`
**Result** > 100 µM (inactive)

**Query** // lookup GI50 for COC(OC)C(C)CC(=O)N(C)C (configuration not stated)
**Result** > 100 µM (inactive)

**Query** // lookup GI50 for CC1=NN(C(=O)CC(=O)Nc2ccc(Cl)cc2)C(=O)C1/N=N\c1ccc(S(=O)(=O)c2ccc(/N=N/C3C(=O)N(C(=O)CC(=O)Nc4ccc(Cl)cc4)N=C3C)cc2)cc1 (configuration not stated)
**Result** > 100 µM (inactive)

**Query** // lookup GI50 for CC(C#N)(c1ccccc1)N(CCc1ccccc1)C(=O)Oc1ccccc1 (configuration not stated)
**Result** > 100 µM (inactive)

**Query** // lookup GI50 for `CNc1ccc([N+](=O)[O-])cc1C(=O)N1CCC[C@H]1CO`
**Result** > 100 µM (inactive)
